Molecular target: MUC1 on HCT116/MUC1 cells (human, UniProt P15941 24-1255)
Sequence (P15941 24-1097, chain 1 of 2): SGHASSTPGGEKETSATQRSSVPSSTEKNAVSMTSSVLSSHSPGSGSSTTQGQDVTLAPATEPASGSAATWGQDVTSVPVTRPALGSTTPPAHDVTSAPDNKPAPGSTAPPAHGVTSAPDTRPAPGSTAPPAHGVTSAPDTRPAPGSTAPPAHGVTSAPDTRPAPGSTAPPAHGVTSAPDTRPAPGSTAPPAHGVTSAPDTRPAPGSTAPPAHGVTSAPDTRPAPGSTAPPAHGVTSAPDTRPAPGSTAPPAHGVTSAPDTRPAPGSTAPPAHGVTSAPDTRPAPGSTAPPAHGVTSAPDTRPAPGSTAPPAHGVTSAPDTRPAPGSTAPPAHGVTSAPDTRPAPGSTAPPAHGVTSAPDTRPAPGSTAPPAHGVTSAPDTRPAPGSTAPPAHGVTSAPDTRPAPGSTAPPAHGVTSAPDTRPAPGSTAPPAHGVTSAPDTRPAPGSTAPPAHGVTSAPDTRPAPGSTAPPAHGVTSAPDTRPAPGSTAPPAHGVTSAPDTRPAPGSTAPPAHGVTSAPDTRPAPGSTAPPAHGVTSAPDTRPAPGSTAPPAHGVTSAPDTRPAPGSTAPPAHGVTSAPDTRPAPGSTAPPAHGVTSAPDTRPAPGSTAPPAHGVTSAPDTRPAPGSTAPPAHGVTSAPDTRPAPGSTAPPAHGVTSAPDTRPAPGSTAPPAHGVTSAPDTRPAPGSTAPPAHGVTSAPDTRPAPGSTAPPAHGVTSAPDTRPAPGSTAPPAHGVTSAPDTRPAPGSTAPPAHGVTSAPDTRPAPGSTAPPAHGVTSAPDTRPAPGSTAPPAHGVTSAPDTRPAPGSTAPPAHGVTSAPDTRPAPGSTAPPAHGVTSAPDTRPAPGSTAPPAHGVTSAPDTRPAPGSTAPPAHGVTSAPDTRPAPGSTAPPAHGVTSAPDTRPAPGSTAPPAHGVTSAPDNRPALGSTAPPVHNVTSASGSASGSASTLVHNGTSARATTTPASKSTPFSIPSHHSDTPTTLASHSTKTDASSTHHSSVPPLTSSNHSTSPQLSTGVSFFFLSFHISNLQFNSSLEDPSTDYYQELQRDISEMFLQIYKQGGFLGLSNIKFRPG
Sequence (P15941 1098-1255, chain 2 of 2): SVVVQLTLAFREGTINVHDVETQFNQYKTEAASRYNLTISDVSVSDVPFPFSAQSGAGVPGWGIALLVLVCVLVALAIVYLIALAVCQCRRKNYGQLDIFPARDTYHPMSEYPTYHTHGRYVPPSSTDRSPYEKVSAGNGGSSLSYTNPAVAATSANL
Experiment: flow cytometry titration on HCT116/MUC1 cells
Reported pEC50 values for a set of binders
Reminder that pEC50 means the negative base-10 logarithm of the concentration expressed in mol/L.

# input Entry under review: VH5 + VL2 (antibody, V domains shown) VH: EVQLVQSGAEVKKPGESLKISCKGSGYAFSNFWMNWVRQMPGKGLEWMGQIYPGDGDTNYNGKFKGQVTISADKSISTAYLQWSSLKASDTAMYYCARSYYRSAWFAYWGQGTLVTVSL VL: EIVMTQSPATLSVSPGERATLSCRASQSIGTSIHWYQQKPGQAPRLLIYYASESISGIPARFSGSGSGTEFTLTISSLQSEDFAVYYCQQSNNWPLTFGGGTKVEIK . Reported pEC50?
# output 8.11

# input Entry under review: VH2 + VL3 (antibody, V domains shown) VH: QVQLVQSGAEVKKPGASVKVSCKASGYAFSNFWMNWVRQAPGQGLEWMGQIYPGDGDTNYNGKFKGRVTMTRDTSTSTVYMELSSLRSEDTAVYYCARSYYRSAWFAYWGQGTLVTVSS VL: EIVLTQSPATLSLSPGERATLSCRASQSIGTSIHWYQQKPGQAPRLLIYYASESISGIPARFSGSGSGTDFTLTISSLEPEDFAVYYCQQSNNWPLTFGGGTKVEIK . Reported pEC50?
# output 7.88

# input Entry under review: VH1 + VL4 (antibody, V domains shown) VH: QVQLVQSGAEVKKPGSSVKVSCKASGYAFSNFWMNWVRQAPGQGLEWMGQIYPGDGDTNYNGKFKGRVTITADKSTSTAYMELSSLRSEDTAVYYCARSYYRSAWFAYWGQGTLVTVSS VL: AIQLTQSPSSLSASVGDRVTITCRASQSIGTSIHWYQQKPGKAPKLLIYYASESISGVPSRFSGSGSGTDFTLTISSLQPEDFATYYCQQSNNWPLTFGGGTKVEIK . Reported pEC50?
# output 8.01

# input Entry under review: VH1 + VL3 (antibody, V domains shown) VH: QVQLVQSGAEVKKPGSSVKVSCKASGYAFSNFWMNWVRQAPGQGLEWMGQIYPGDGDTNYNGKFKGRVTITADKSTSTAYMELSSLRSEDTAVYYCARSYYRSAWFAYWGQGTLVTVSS VL: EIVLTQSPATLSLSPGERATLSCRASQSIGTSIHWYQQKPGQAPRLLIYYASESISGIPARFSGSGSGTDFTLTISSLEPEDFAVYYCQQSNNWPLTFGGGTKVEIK . Reported pEC50?
# output 7.88
